Reported IC90 is given for each of the following compounds.
# Tested on: Plasmodium falciparum
# Protocol Notes: Inhibition of Plasmodium falciparum in HRP2 ELISA
# Type: functional, organism-based

[
  {
    "Compound": "CCN(CC)CCCC(C)Nc1ccnc2cc(Cl)ccc12 (stereo not given)",
    "IC90 [µg/mL]": 0.13
  },
  {
    "Compound": "OC(c1cc(C(F)(F)F)nc2c(C(F)(F)F)cccc12)C1CCCCN1 (stereo not given)",
    "IC90 [µg/mL]": 0.031
  },
  {
    "Compound": "C=C[C@H]1CN2CC[C@H]1C[C@H]2[C@H](O)c1ccnc2ccc(OC)cc12",
    "IC90 [µg/mL]": 0.173
  },
  {
    "Compound": "CC[C@H]1OC(=O)[C@H](C)[C@@H](O[C@H]2C[C@@](C)(OC)[C@@H](O)[C@H](C)O2)[C@H](C)[C@@H](O[C@@H]2O[C@H](C)C[C@H](N(C)C)[C@H]2O)[C@](C)(O)C[C@@H](C)CN(C)[C@H](C)[C@@H](O)[C@]1(C)O",
    "IC90 [µg/mL]": 13.3
  },
  {
    "Compound": "C[C@H]1[C@@H](O)O[C@@H]2O[C@@]3(C)CC[C@H]4[C@H](C)CC[C@@H]1[C@@]24OO3",
    "IC90 [µg/mL]": 0.00143
  }
]

These entries and their values trace back to ChEMBL document CHEMBL1142189.
